B1: CPEB3 Ribozyme (parent)
chain: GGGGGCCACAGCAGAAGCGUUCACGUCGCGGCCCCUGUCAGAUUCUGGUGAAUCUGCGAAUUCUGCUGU

# Variants of: B1
# testDetails: self-cleavage, relative activity (ratio to wild type); higher = more cleavage; co-transcriptional
assayMetric: self-cleavage

INSERT INTO measurements (mutationlabel, assaymetric, readoutnumber) VALUES
  ('C9G G48U', 'self-cleavage', 1.01),
  ('A8G U20A', 'self-cleavage', 0.0589),
  ('C27U U64A', 'self-cleavage', 0.161),
  ('G5C C57U', 'self-cleavage', 0.0922),
  ('G5C C32U', 'self-cleavage', 0.703),
  ('U21G A23G', 'self-cleavage', 0.549),
  ('U61G G65C', 'self-cleavage', 0.449),
  ('U55A U67G', 'self-cleavage', 0.963),
  ('G47A U69C', 'self-cleavage', 1.06),
  ('A16C G50A', 'self-cleavage', 0.23),
  ('A40C G65U', 'self-cleavage', 0.354),
  ('C33U U62A', 'self-cleavage', 0.956),
  ('A15G G17C', 'self-cleavage', 0.138),
  ('C18U C29G', 'self-cleavage', 0.132),
  ('C18A G56A', 'self-cleavage', 0.156),
  ('G37C A52U', 'self-cleavage', 0.254),
  ('G14A C29A', 'self-cleavage', 0.23),
  ('U49C C63U', 'self-cleavage', 0.993),
  ('G28C U46G', 'self-cleavage', 0.118),
  ('C27U G48A', 'self-cleavage', 0.431),
  ('G50U U67A', 'self-cleavage', 1.04),
  ('G4U A16C', 'self-cleavage', 0.0815),
  ('G19C U21G', 'self-cleavage', 0.161),
  ('C7A A52G', 'self-cleavage', 0.515),
  ('A40G U64C', 'self-cleavage', 0.737),
  ('C32G G56C', 'self-cleavage', 0.218),
  ('A16U C22U', 'self-cleavage', 0.168),
  ('C22A C66A', 'self-cleavage', 0.232),
  ('C27A C45U', 'self-cleavage', 0.596),
  ('G3C C34A', 'self-cleavage', 0.465),
  ('C54U G58U', 'self-cleavage', 1.02),
  ('G31U A51C', 'self-cleavage', 0.628),
  ('G14U C22G', 'self-cleavage', 0.172),
  ('C9G U64G', 'self-cleavage', 0.936),
  ('C7U C29A', 'self-cleavage', 0.413),
  ('C6G U43A', 'self-cleavage', 0.172),
  ('G19U G28C', 'self-cleavage', 0.125),
  ('U55A C57U', 'self-cleavage', 0.369),
  ('G1A U43A', 'self-cleavage', 0.0552),
  ('G17A C27G', 'self-cleavage', 0.134),
  ('G14C A15G', 'self-cleavage', 0.725),
  ('G68A', 'self-cleavage', 1.01),
  ('G5A G30C', 'self-cleavage', 0.156),
  ('U46A G50U', 'self-cleavage', 0.977),
  ('G5C U38C', 'self-cleavage', 0.12),
  ('C9G A60G', 'self-cleavage', 0.952);
